Where do these numbers come from? They come from patent US20150010928A1.

test system: male rats; experiment: Plasma metabolite profiling (GC-MS, LC-MS, SPE-LC-MS) in male rats dosed once daily over 28 days (OECD 407); type: in vivo, rat; conditions: male rats, plasma, high dose, day 7
Marks after values point to notes of the source that are not given here.
Exercise: state measured Heptadecanoic acid (C17:0), ratio versus control for each of the compounds provided.

# annotated cases, reported Heptadecanoic acid (C17:0), ratio versus control shown
compound="CCNC(=O)[C@@H]1CCCN1C(=O)[C@H](CCCNC(=N)N)NC(=O)[C@H](CC(C)C)NC(=O)[C@@H](COC(C)(C)C)NC(=O)[C@H](Cc1ccc(O)cc1)NC(=O)[C@H](CO)NC(=O)[C@H](Cc1c[nH]c2ccccc12)NC(=O)[C@H](Cc1cnc[nH]1)NC(=O)[C@@H]1CCC(=O)N1 [Buserelin acetate a.c., Buserelin acetate]" result="0.81 *"
compound="C#C[C@]1(OC(C)=O)CC[C@H]2[C@@H]3CCC4=CC(=O)CC[C@@H]4[C@H]3CC[C@@]21C [Norethindrone acetate]" result="0.56 *"

Note: attention shifts to another entry.
input: Supply Heptadecanoic acid (C17:0), ratio versus control measured with male rats for C[C@@H]1CC2=CC(=O)CC[C@@H]2[C@H]2CC[C@@]3(C)[C@@H](CC[C@]3(C)O)[C@@H]21 [Mibolerone] .
output: 0.37 *

----------
Can you tell me Androstenedione, ratio versus control for the items I'm about to list?
tested on: male rats; assay: Plasma metabolite profiling (GC-MS, LC-MS, SPE-LC-MS) in male rats dosed once daily over 28 days (OECD 407); assay type: in vivo, rat; conditions: male rats, plasma, high dose, day 7
Marks after values point to notes of the source that are not given here.

compound="CCNC(=O)[C@@H]1CCCN1C(=O)[C@H](CCCNC(=N)N)NC(=O)[C@H](CC(C)C)NC(=O)[C@@H](COC(C)(C)C)NC(=O)[C@H](Cc1ccc(O)cc1)NC(=O)[C@H](CO)NC(=O)[C@H](Cc1c[nH]c2ccccc12)NC(=O)[C@H](Cc1cnc[nH]1)NC(=O)[C@@H]1CCC(=O)N1 [Buserelin acetate a.c., Buserelin acetate]" measurement_kind="Androstenedione, ratio versus control" result="0.17 *"
compound=C[C@@H]1CC2=CC(=O)CC[C@@H]2[C@H]2CC[C@@]3(C)[C@@H](CC[C@]3(C)O)[C@@H]21 measurement_kind="Androstenedione, ratio versus control" result="0.05 *"

Field: next compound
input: Under male rats, report Androstenedione, ratio versus control for C#C[C@]1(OC(C)=O)CC[C@H]2[C@@H]3CCC4=CC(=O)CC[C@@H]4[C@H]3CC[C@@]21C [Norethindrone acetate]
output: 0.42 *

----------
Could you please report measured erythro-Sphingosine (d18:1) for the items listed next?
tested on: male rats; assay: Plasma metabolite profiling (GC-MS, LC-MS, SPE-LC-MS) in male rats dosed once daily over 28 days (OECD 407); format: in vivo, rat; conditions: m14; high dose; Table 14b
Counter-ions that a name gives are not always drawn.
One number for each entry.

compound=C#C[C@]1(O)CC[C@H]2[C@@H]3CCc4cc(O)ccc4[C@H]3CC[C@@]21C readout_number=0.13
compound=CC/C(=C(\c1ccccc1)c1ccc(OCCN(C)C)cc1)c1ccccc1 readout_number=0.41

Please examine the following record next.
input: Return value of erythro-Sphingosine (d18:1) for input O=C(c1ccc(OCCN2CCCCC2)cc1)c1c(-c2ccc(O)cc2)sc2cc(O)ccc12 [Raloxifene Hydrochloride] , no commentary.
output: 0.49
